System: SR leukemia
Test: NCI tumour cell line growth inhibition, 48 h
READOUT_TYPE: TGI

COMPOUND	TGI
CC1=C(C)C(=O)O[C@@H]([C@](C)(O)[C@]2(O)CC[C@@]3(O)[C@@H]4C[C@H]5O[C@]56CC=CC(=O)[C@]6(C)[C@H]4CC[C@]23C)C1	> 100 µM
CNC(=O)c1cn(C[C@H](F)CCc2ccc(NC(=O)Cc3cc(OC4CC(F)(F)C4)cc(C)n3)nn2)nn1	> 100 µM

Next, consider the following compound.
# input compound: COc1ccc(C2C(C#N)=C(N)OC3=C2CCCc2ccc(F)cc23)cc1OC (stereo not drawn) ; wanted: its TGI > 100 µM

---

Test system: MDA-MB-435
Assay: NCI tumour cell line growth inhibition, 48 h
READOUT_TYPE: TGI

Solved entries (count: 3):
COMPOUND	MEASURED_RESULT
COc1cc(-c2c3c(cc4c2OCO4)[C@@H](Nc2ccc4c(c2)Cc2cc(N[C@@H]5c6cc7c(cc6C(c6cc(OC)c(O)c(OC)c6)[C@H]6C(=O)OC[C@H]56)OCO7)ccc2-4)[C@H]2COC(=O)[C@@H]2C3)cc(OC)c1O (some centres undefined)	33.1 µM
COc1ccc2c(-c3cc4ccccc4o3)cc(=O)oc2c1	> 100 µM
Cc1c(-c2nc(N)nc(C3CC3)c2C)nc(N)nc1C1CC1	> 100 µM

Next, consider the following compound.
# input compound: COC(=O)c1sc2ncc3c(c2c1N)CC(C)CC3 (centres undefined) ; wanted: its TGI > 100 µM

---

Tested on: IGROV1 ovarian
Experiment: NCI tumour cell line growth inhibition, 48 h
Recorded TGI values for a group of compounds are listed next.
Enter your answer as a number in µM; do not include the unit.

COMPOUND	TGI, µM
Cc1ccc(C(=O)CC(Sc2cccc(Cl)c2Cl)c2ccc(Cl)cc2)cc1C (stereo unspecified)	41.2
CC1OC(n2cc(F)c(=O)[nH]c2=O)C(O[Si](C)(C)C(C)(C)C)C1O[Si](C)(C)C(C)(C)C (stereo unspecified)	27.3

Next, consider the following compound.
# input compound: NCCN1CCN(c2nccc(-c3ccc4ccccc4c3)n2)CC1 ; wanted: its TGI 4.12

---

Tested on: M14 melanoma
Assay: NCI tumour cell line growth inhibition, 48 h
Recorded TGI values for a group of compounds are listed next.
Enter your answer as a number in µM; do not include the unit.

Solved entries (count: 2):
COMPOUND	MEASURED_RESULT
Cc1ccc(C(=O)CC(Sc2cccc(Cl)c2Cl)c2ccc(Cl)cc2)cc1C (stereo not given)	65.1
COC(=O)c1cc2c3c(cc(NCCN)c2[nH]1)N(C(=O)c1cc2cc(OC)c(OC)c(OC)c2[nH]1)CC3CCl (stereo not given)	0.253

Next, consider the following compound.
# input compound: CC(C)(C)OC(=O)c1ccc(NCc2cc(O)ccc2O)cc1 ; wanted: its TGI 7.35

---

Tested on: M14 melanoma
Assay: NCI tumour cell line growth inhibition, 48 h
READOUT_TYPE: TGI

# input molecule: Cc1sc(C)c(-c2ccc(CO)o2)c1-c1ccc(CO)o1 ; wanted: its TGI > 100 µM

---

Tested on: SK-MEL-28 melanoma
Assay: NCI tumour cell line growth inhibition, 48 h
Recorded TGI values for a group of compounds are listed next.

COMPOUND	TGI
CCCCCC(C(O)C#N)C(O)(C(F)(F)F)C(F)(F)F (stereo unspecified)	> 10 µM
Cc1ncc(NC(=O)c2ccc(CN3CCN(C)CC3)c(C(F)(F)F)c2)cc1Nc1nccc(-c2cccnc2)n1	25.4 µM

# input compound: Cc1ccc([N+](=O)[O-])c2c(NCCCN(C)C)ccnc12 ; wanted: its TGI > 100 µM

# input compound: CC(C)(C)C1(O)Cc2ccccc2C(=O)O1 (stereo unspecified) ; wanted: its TGI > 100 µM

# input compound: Clc1cc(Cl)c2c(Cl)cc(Cl)c3c2c1N=S=N3 ; wanted: its TGI > 100 µM

---

Recorded TGI values for a group of compounds are listed next.
Test system: 786-0 renal
Assay: NCI tumour cell line growth inhibition, 48 h

COMPOUND	MEASURED_RESULT
O=c1c2ccccc2c2c3c1cccc3c1cccc3c(=O)c4ccccc4c2c31	> 100 µM
N#CC(C#N)=Cc1cccc(Oc2ccccc2)c1	34.2 µM
Clc1cc(Cl)c2c(Cl)cc(Cl)c3c2c1N=S=N3	> 100 µM

Next, consider the following compound.
# input compound: Clc1ccc(CNc2nc3ccccc3nc2-c2cccs2)c(Cl)c1 ; wanted: its TGI > 100 µM

---

These molecules were tested on U251 CNS; GI50 is the recorded read-out.

MOLECULE	TARGET_UNDER_TEST	READOUT_TYPE	MEASURED_RESULT
Cc1sc(C)c(-c2ccc(CO)o2)c1-c1ccc(CO)o1	U251 CNS	GI50	14.5 µM
COCC(=O)OC1CCn2c1nc1c2C(=O)C(C)=C(NC(C)=O)C1=O (configuration not stated)	U251 CNS	GI50	4.36 µM
COc1ccc(C2C(C#N)=C(N)OC3=C2CCCc2ccc(F)cc23)cc1OC (configuration not stated)	U251 CNS	GI50	17 µM
NC(N)=N/N=C/c1c(-c2ccccn2)nc2sc(Cl)cn12	U251 CNS	GI50	8.28 µM
O=C(Nc1cc(-c2ccccc2)[nH]n1)c1ccc(Cl)cc1	U251 CNS	GI50	9.42 µM
CNC(=O)c1ccc(-c2cnc3ncc(Cc4ccc5ncccc5c4)n3n2)cc1F	U251 CNS	GI50	75.1 µM

# input molecule: O=P(O)(O)C(O)(Cn1ccnc1)P(=O)(O)O ; wanted: its GI50 > 59.1 µM

# input molecule: CN1CCN(Cc2ccc(NC(=O)c3ccc(C(C)(C)C)c(C#Cc4cnc5cccnn45)c3)cc2C(F)(F)F)CC1 ; wanted: its GI50 1.97 µM

# input molecule: O=C(N/N=C/c1ccc(Cl)cc1Cl)c1ccccc1Nc1cccc(C(F)(F)F)c1 ; wanted: its GI50 3.07 µM

# input molecule: COc1cc(/C=C2\CC3C4CC=C5CC(N6CCCC6)CC[C@]5(C)C4CC[C@]3(C)C2OC(C)=O)ccc1OCCN1CCCC1 (some centres not stated) ; wanted: its GI50 1.81 µM

# input molecule: CCn1c(-c2nonc2N)nc2ccc(F)cc21 ; wanted: its GI50 > 25 µM

# input molecule: CCCSc1cc(Cl)nc(N)n1 ; wanted: its GI50 > 100 µM

---

Tested on: NCI-H522 lung
Experiment: NCI tumour cell line growth inhibition, 48 h
READOUT_TYPE: TGI

COMPOUND	TGI
COc1ccc(-c2cc(-c3cc(Cl)ccc3Cl)nc3nc(=S)[nH]c(N)c23)cc1	> 100 µM
COc1cc2c3c(n(C)c(=O)c2cc1OC)-c1cc2c(cc1/C3=C/CCCCBr)OCO2	> 100 µM

Next, consider the following compound.
Item CCC1(CC)C(=O)NC(=S)N=C1N with NCI-H522 lung - TGI? > 100 µM

---

Recorded TGI values for a group of compounds are listed next.
System: M19-MEL melanoma
Test: NCI tumour cell line growth inhibition, 48 h

COMPOUND	TGI
CC1(C)CCc2cc3c(cc2O1)OCCC3=O	> 100 µM
CCOC(=O)Cc1nc(/C(C#N)=C/c2ccco2)[nH]c(=O)c1C#N	> 100 µM
C=C1CC2C(=O)N(c3ccccc3)C(=O)C2CC1n1[nH]c(=O)n(Cc2ccccc2)c1=O (stereo not given)	> 100 µM
Clc1ccc(CNc2nc3ccccc3nc2-c2cccs2)c(Cl)c1	> 100 µM
CC1(C)OC(=O)C=C([O-])O1.CC1(C)OC(=O)C=C([O-])O1.O=c1c(O)c(-c2ccc([O-])cc2[O-])oc2cc(O)cc(O)c12.[Ti+4]	> 100 µM
CC(C)(C)c1nc2c(o1)C(=Nc1ccc(F)cc1)c1ccccc1C2=O	3.08 µM

# input compound: O=C(Nc1ccc(S(=O)(=O)N[C@@H](C(=O)O)c2ccccc2)cc1)c1ccc(F)cc1 ; wanted: its TGI > 100 µM

# input compound: CC(C)(C)C1(O)Cc2ccccc2C(=O)O1 (stereo not given) ; wanted: its TGI > 100 µM

# input compound: CC1CCCC(C(=O)/C(=C/c2cccc(Cl)c2)C(=O)C(=O)O)C1 (stereo not given) ; wanted: its TGI 32.7 µM

# input compound: CC1=Nc2c(ccc3c2C(=O)c2ccccc2C3=O)NC(c2ccncc2)C1 (stereo not given) ; wanted: its TGI > 100 µM

---

Test system: SF-268 CNS
Experiment: NCI tumour cell line growth inhibition, 48 h
READOUT_TYPE: log10 of TGI (log10 of the value in µM)
Record value = log10 of TGI given in µM.

Solved entries (count: 8):
MOLECULAR_STRING	MEASURED_RESULT
C/C(=N\Nc1nc2ccccc2s1)c1cccnn1	1.30
Cc1ccc2c(c1)C(=O)/C(=C\c1ccc(Cl)cc1)CCS2(=O)=O	1.21
Clc1ccc(OCc2nnc3n2N=C(c2ccc(Cl)cc2Cl)CS3)c(Cl)c1	1.82
COc1cc(/C=C\c2ccc(O)cc2)cc(OC)c1OC	0.67
NCCN1CCN(c2nccc(-c3ccc4ccccc4c3)n2)CC1	0.54
Cc1cccc(NC(Nc2cccc(C)c2)=C(C(Cl)=C(Cl)Cl)[N+](=O)[O-])c1	1.49
CCCNCc1cc(C)cc2c1nc(N1CCNCC1)n2Cc1cc(C)c(F)c(C)c1	1.29
c1cc[c]([Sn]([S]c2cccc3cccnc23)([c]2ccccc2)[c]2ccccc2)cc1	-0.62

# input compound: Nc1nc(Nc2ccc(OCc3cccc(F)c3)cc2)c2c(n1)[nH]c1ccc(O)cc12 ; wanted: its log10 of TGI 1.09
